- targetOrTestSystem: Estrogen receptor (Homo sapiens)
- Sequence (P03372 whole entry): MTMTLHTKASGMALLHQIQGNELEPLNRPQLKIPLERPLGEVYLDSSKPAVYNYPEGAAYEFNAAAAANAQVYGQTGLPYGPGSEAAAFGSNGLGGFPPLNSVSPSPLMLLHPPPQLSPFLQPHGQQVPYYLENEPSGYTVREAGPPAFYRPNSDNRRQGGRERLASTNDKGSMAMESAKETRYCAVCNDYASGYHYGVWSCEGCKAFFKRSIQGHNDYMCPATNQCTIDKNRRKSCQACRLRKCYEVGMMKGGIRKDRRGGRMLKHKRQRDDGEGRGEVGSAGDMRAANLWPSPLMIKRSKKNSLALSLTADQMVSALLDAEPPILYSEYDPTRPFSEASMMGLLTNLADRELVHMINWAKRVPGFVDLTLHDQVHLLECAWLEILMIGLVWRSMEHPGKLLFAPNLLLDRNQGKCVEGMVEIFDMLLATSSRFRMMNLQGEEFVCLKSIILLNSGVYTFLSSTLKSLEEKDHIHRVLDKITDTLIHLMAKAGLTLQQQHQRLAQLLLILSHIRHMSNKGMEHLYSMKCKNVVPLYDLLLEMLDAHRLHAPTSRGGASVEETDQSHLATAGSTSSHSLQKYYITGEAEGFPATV
- assayInfo: Binding affinity to estrogen receptor (unknown origin)
pIC50: −log10 of the molar value.
measure: pIC50

Look over these answered cases.
                            structurestring                targetortestsystem  measure  measvalue
0  CC/C(=C(/c1ccc(/C=C/C(=O)O)cc1)c1cc2ccccc2[nH]1)c1cccc(F)c1C#N  Estrogen receptor (Homo sapiens)    pIC50       9.77
1  CC/C(=C(/c1ccc(/C=C/C(=O)O)cc1)c1cc2ccccc2[nH]1)c1ccc(Cl)cc1  Estrogen receptor (Homo sapiens)    pIC50       8.76

1 = CC/C(=C(/c1ccc(/C=C/C(=O)O)cc1)c1cc2ccccc2[nH]1)c1cccc(Cl)c1Cl
2 = CC/C(=C(/c1ccc(/C=C/C(=O)O)cc1)c1cc2ccccc2[nH]1)c1ccc(OC)cc1
// query Pick one: 1 or 2 . Which one has the lower reported pIC50? Return value: the label identifying the chosen record.
// result 1

Where do the numbers come from? From ChEMBL document CHEMBL4699562.
